Listing of entries alongside the reported log10 IC50.
Tested on: MDA NQ01
Assay: IC50 by MTT assay on NQ01 cells
Format: cell-based, human
Conditions: Homo sapiens; MTT assay
The figures below represent log10 of IC50, where IC50 is stated in nM.

Examples with their reported log10 IC50 follow.
CC1=C(N2CC2)C(=O)C(CCCO)=C(N2CC2)C1=O [Compound 4-61]	-0.39
CC(=O)O[C@@]12CO[C@@H]1C[C@H](O)[C@@]1(C)C(=O)[C@H](O)C3=C(C)[C@@H](OC(=O)[C@H](O)[C@@H](NC(=O)OC(C)(C)C)c4ccccc4)C[C@@](O)([C@@H](OC(=O)c4ccccc4)[C@H]21)C3(C)C [Docetaxel]	0.27
COc1cccc2c1C(=O)c1c(O)c3c(c(O)c1C2=O)C[C@@](O)(C(=O)CO)C[C@@H]3O[C@H]1C[C@H](N)[C@@H](O)[C@H](C)O1 [Epirubicin]	1.44

For reference, reported log10 IC50 for O=c1[nH]cc(F)c(=O)[nH]1 [5-fluorouracil] stands at 4.08

For reference, reported log10 IC50 for CC(=O)OCCCC1=C(N2CC2)C(=O)C(C)=C(N2CC2)C1=O [Es5] stands at -0.64

For reference, reported log10 IC50 for CC[C@]1(O)C[C@@H]2CN(CCc3c([nH]c4ccccc34)[C@@](C(=O)OC)(c3cc4c(cc3OC)N(C)[C@H]3[C@@](O)(C(=O)OC)[C@H](OC(C)=O)[C@]5(CC)C=CCN6CC[C@]43[C@@H]65)C2)C1 [Vinblastine] stands at 1.26

For reference, reported log10 IC50 for CN(Cc1cnc2nc(N)nc(N)c2n1)c1ccc(C(=O)N[C@@H](CCC(=O)O)C(=O)O)cc1 [Methotrexate] stands at 1.43

###

Assay: physchem
Settings: organic solvent or mixture
TEST READOUT: solubility (µg/mL)
# number only, unit µg/mL dropped from output

For reference, reported solubility for `CC(=O)OCCCC1=C(N2CC2)C(=O)C(C)=C(N2CC2)C1=O` stands at 9400

###

Test system: esterases
Assay: Cell lysate esterase reaction, MDA468 cell extract
Format: in vitro ADME, human
Details: human, MDA468 cell extract (cell lysate)
TEST READOUT: half-life (h)
# number only, unit h dropped from output

For reference, reported half-life for `CC(=O)OCCCC1=C(N2CC2)C(=O)C(C)=C(N2CC2)C1=O` stands at 4.67

###

Test: physchem
Conditions: aqueous buffer
TEST READOUT: solubility (µg/mL)
# number only, unit µg/mL dropped from output

For reference, reported solubility for `CC(=O)OCCCC1=C(N2CC2)C(=O)C(C)=C(N2CC2)C1=O` stands at 150

###

Listing of entries alongside the reported half-life.
Assay: physchem
Format: physicochemical
Settings: buffer, pH 7

Examples with their reported half-life follow.
COc1ccc(OC)c(C(=O)OCC2=C(N3CC3)C(=O)C(C)=C(N3CC3)C2=O)c1 [Compound 4-07]	< 20 min
COc1cccc(OC)c1C(=O)OCC1=C(N2CC2)C(=O)C(C)=C(N2CC2)C1=O [Compound 4-11]	< 30 min
COc1ccc(C(=O)OCC2=C(N3CC3)C(=O)C(C)=C(N3CC3)C2=O)cc1OC [Compound 4-09]	< 30 min

For reference, reported half-life for CC1=C(N2CC2)C(=O)C(COC(=O)c2ccc([N+](=O)[O-])cc2)=C(N2CC2)C1=O [Compound 4-20] stands at 20 min

For reference, reported half-life for COc1ccc(C(=O)OCC2=C(N3CC3)C(=O)C(C)=C(N3CC3)C2=O)c(OC)c1 [Compound 4-10] stands at < 30 min

For reference, reported half-life for CC1=C(N2CC2)C(=O)C(COC(=O)C(C)C)=C(N2CC2)C1=O [Compound 4-36] stands at < 30 min

For reference, reported half-life for CC1=C(N2CC2)C(=O)C(CCOC(=O)c2ccccc2)=C(N2CC2)C1=O [Compound 4-71] stands at < 60 min

For reference, reported half-life for CCC(=O)OCC1=C(N2CC2)C(=O)C(C)=C(N2CC2)C1=O [Compound 4-38] stands at 20 min

For reference, reported half-life for COc1cc(C(=O)OCC2=C(N3CC3)C(=O)C(C)=C(N3CC3)C2=O)cc(OC)c1OC [Compound 4-14] stands at < 30 min

For reference, reported half-life for CC1=C(N2CC2)C(=O)C(COC(=O)C(C)(C)C)=C(N2CC2)C1=O [Compound 4-39] stands at < 30 min

For reference, reported half-life for COc1cccc(C(=O)OCC2=C(N3CC3)C(=O)C(C)=C(N3CC3)C2=O)c1OC [Compound 4-05] stands at < 10 min

For reference, reported half-life for CC(=O)OCCC1=C(N2CC2)C(=O)C(C)=C(N2CC2)C1=O [Compound 4-70] stands at < 60 min

The origin of these recorded values is patent US9266829B2.
